# Test system: Staphylococcus aureus (MSSA)
# run parameters: 24 h
Starred links: 1 amine or outer side, 2 acyl side, 3 side chain; linkers in the order of their positions; H or OH if unused. Positions of bridges follow the written chain, without caps; N, C: chain ends. Non-standard residues stand in square brackets, D forms with d. Residues, ends and D or L forms follow the SMILES beside them. ξ: configuration not given here. *: point of attachment. ξAbu(βξ-NH2) = CC(N[*:3])C(N[*:1])C(=O)[*:2]; ξAsp(βξ-Me) = CC(C(=O)O)C(N)C(=O)O; ξAbu(3ξ-NH2) = CC(N)C(N)C(=O)O; Undecanoyl = CCCCCCCCCCC(=O)*; ξD = NC(CC(=O)O)C(=O)O; ξPip = O=C(O)C1CCCCN1; ξV = CC(C)C(N)C(=O)O; ξP = O=C(O)C1CCCN1; OtBu = CC(C)(C)O*
outcome measure: MIC (µg/mL)

compound: CCCCCCCCCCC(=O)N[C@@H](CC(=O)OC(C)(C)C)C(=O)NC(CC(=O)O)C(=O)NC1C(=O)N2CCCCC2C(=O)NC(C(C)C(=O)O)C(=O)NC(CC(=O)O)C(=O)NCC(=O)NC(CC(=O)O)C(=O)NCC(=O)NC(C(C)N)C(=O)NC(C(C)C)C(=O)N2CCCC2C(=O)NC1C (stereo partly drawn) [Compound 314, C11-(Asp-(OtBu))-Amphomycin] (Undecanoyl-D(OtBu)[ξD][ξAbu(βξ-NH2)][ξPip][ξAsp(βξ-Me)][ξD]G[ξD]G[ξAbu(3ξ-NH2)][ξV][ξP]; lactam 3-C)
unit label: µg/mL
experimental value: 8

====

# System: Staphylococcus aureus (MSSA)
# run parameters: 24 h
Starred links: 1 amine or outer side, 2 acyl side, 3 side chain; linkers in the order of their positions; H or OH if unused. Positions of bridges follow the written chain, without caps; N, C: chain ends. Non-standard residues stand in square brackets, D forms with d. Residues, ends and D or L forms follow the SMILES beside them. ξ: configuration not given here. *: point of attachment. Benzoyl(4-OC10H21) = CCCCCCCCCCOc1ccc(C(=O)*)cc1; X11 = CC(NC(=O)CC1CC2CCC1C2)C(N[*:1])C(=O)[*:2]; ξAbu(βξ-NH2) = CC(N[*:3])C(N[*:1])C(=O)[*:2]; Pentadecanoyl = CCCCCCCCCCCCCCC(=O)*; ξAsp(βξ-Me) = CC(C(=O)O)C(N)C(=O)O; ξAbu(3ξ-NH2) = CC(N)C(N)C(=O)O; Pip = O=C(O)[CH]1CCCCN1; ξD = NC(CC(=O)O)C(=O)O; ξPip = O=C(O)C1CCCCN1; ξV = CC(C)C(N)C(=O)O; ξP = O=C(O)C1CCCN1

compound: CCCCCCCCCCCCCCC(=O)N[C@H](CC(=O)OC)C(=O)NC(CC(=O)O)C(=O)NC1C(=O)N2CCCCC2C(=O)NC(C(C)C(=O)O)C(=O)NC(CC(=O)O)C(=O)NCC(=O)NC(CC(=O)O)C(=O)NCC(=O)NC(C(C)N)C(=O)NC(C(C)C)C(=O)N2CCCC2C(=O)NC1C (stereo partly drawn) [Compound 317, C15-(Asp-(Ome))-Amphomycin] (Pentadecanoyl-[dD](OMe)[ξD][ξAbu(βξ-NH2)][ξPip][ξAsp(βξ-Me)][ξD]G[ξD]G[ξAbu(3ξ-NH2)][ξV][ξP]; lactam 3-C)
unit label: µg/mL
MIC: 1
--
compound: CCCCCCCCCCOc1ccc(C(=O)NCC(=O)NC(CC(=O)O)C(=O)NC2C(=O)N3CCCCC3C(=O)NC(C(C)C(=O)O)C(=O)NC(CC(=O)O)C(=O)NCC(=O)NC(CC(=O)O)C(=O)NCC(=O)NC(C(C)N)C(=O)NC(C(C)C)C(=O)N3CCCC3C(=O)NC2C)cc1 (stereo not drawn) [Compound 110, CH3—(CH2)9—O-p-Ph-C(═O)-Gly-Amphomycin] ({Benzoyl(4-OC10H21)}-GD[ξAbu(βξ-NH2)][Pip][ξAsp(βξ-Me)]DGDG[ξAbu(3ξ-NH2)]VP; lactam 3-C; configuration not given here)
unit label: µg/mL
MIC: 0.5
--
compound: CCCCCCCCCCCCCCC(=O)NC(CC(=O)O)C(=O)NC1C(=O)N2CCCCC2C(=O)NC(C(C)C(=O)O)C(=O)NC(CC(=O)O)C(=O)NCC(=O)NC(CC(=O)O)C(=O)NCC(=O)NC(C(C)NC(=O)[C@@H](N)CCCNC(N)=O)C(=O)NC(C(C)C)C(=O)N2CCCC2C(=O)NC1C (some centres unmarked) [Compound 165, C15-Amphomycin-9-Cit]
unit label: µg/mL
MIC: 4
--
compound: CCCCCCCCCCCCCCC(=O)NC(CC(=O)O)C(=O)NC1C(=O)N2CCCCC2C(=O)NC(C(C)C(=O)O)C(=O)NC(CC(=O)O)C(=O)NCC(=O)NC(CC(=O)O)C(=O)NCC(=O)NC(C(C)NC(=O)CC2CC3CCC2C3)C(=O)NC(C(C)C)C(=O)N2CCCC2C(=O)NC1C (stereo not drawn) [Compound 208, C15-Amphomycin-9-(2-Norbornaneacetyl)] (Pentadecanoyl-D[ξAbu(βξ-NH2)][Pip][ξAsp(βξ-Me)]DGDG[X11]VP; lactam 2-C; configuration not given here)
unit label: µg/mL
MIC: 4

====

# Tested on: Staphylococcus aureus (MSSA)
# run parameters: 24 h
Starred links: 1 amine or outer side, 2 acyl side, 3 side chain; linkers in the order of their positions; H or OH if unused. Positions of bridges follow the written chain, without caps; N, C: chain ends. Non-standard residues stand in square brackets, D forms with d. Residues, ends and D or L forms follow the SMILES beside them. ξ: configuration not given here. *: point of attachment. ξAbu(βξ-NH2) = CC(N[*:3])C(N[*:1])C(=O)[*:2]; Phac(3-amino) = O=C(Cc1cccc(N[*:1])c1)[*:2]; X24 = C/C=C/C(=O)NC(C)C(N[*:1])C(=O)[*:2]; Pentadecanoyl = CCCCCCCCCCCCCCC(=O)*; ξAsp(βξ-Me) = CC(C(=O)O)C(N)C(=O)O; ξAbu(3ξ-NH2) = CC(N)C(N)C(=O)O; 12Ado = NCCCCCCCCCCCC(=O)O; Decanoyl = CCCCCCCCCC(=O)*; Pip = O=C(O)[CH]1CCCCN1
outcome measure: MIC (µg/mL)

compound: CC(=O)NCCCCCCCCCCCC(=O)NC(CC(=O)O)C(=O)NC1C(=O)N2CCCCC2C(=O)NC(C(C)C(=O)O)C(=O)NC(CC(=O)O)C(=O)NCC(=O)NC(CC(=O)O)C(=O)NCC(=O)NC(C(C)N)C(=O)NC(C(C)C)C(=O)N2CCCC2C(=O)NC1C (stereo not drawn) [Compound 374, (12-Acetylaminododecanoyl)-Amphomycin] (Ac-[12Ado]D[ξAbu(βξ-NH2)][Pip][ξAsp(βξ-Me)]DGDG[ξAbu(3ξ-NH2)]VP; lactam 3-C; configuration not given here; N-terminus assumed)
comparison sign: >
experimental value: 64
//
compound: CCCCCCCCCCCCCCNC(=O)NCCC(=O)NC(CC(=O)O)C(=O)NC1C(=O)N2CCCCC2C(=O)NC(C(C)C(=O)O)C(=O)NC(CC(=O)O)C(=O)NCC(=O)NC(CC(=O)O)C(=O)NCC(=O)NC(C(C)N)C(=O)NC(C(C)C)C(=O)N2CCCC2C(=O)NC1C (centres unmarked)
comparison sign: =
experimental value: 0.5
//
compound: CCCCCCCCCCCCCCC(=O)NC(CC(=O)O)C(=O)NC1C(=O)N2CCCCC2C(=O)NC(C(C)C(=O)O)C(=O)NC(CC(=O)O)C(=O)NCC(=O)NC(CC(=O)O)C(=O)NCC(=O)NC(C(C)NC(=O)[C@@H](N)CCC(=O)O)C(=O)NC(C(C)C)C(=O)N2CCCC2C(=O)NC1C (some centres unmarked)
comparison sign: =
experimental value: 1
//
compound: C/C=C/C(=O)NC(C)C1NC(=O)CNC(=O)C(CC(=O)O)NC(=O)CNC(=O)C(CC(=O)O)NC(=O)C(C(C)C(=O)O)NC(=O)C2CCCCN2C(=O)C(NC(=O)C(CC(=O)O)NC(=O)CCCCCCCCCCCCCC)C(C)NC(=O)C2CCCN2C(=O)C(C(C)C)NC1=O (stereo not drawn) [Compound 218, C15-Amphomycin-9-Crotonyl] (Pentadecanoyl-D[ξAbu(βξ-NH2)][Pip][ξAsp(βξ-Me)]DGDG[X24]VP; lactam 2-C; configuration not given here)
comparison sign: =
experimental value: 8
//
compound: CCCCCCCCCCCCCCNC(=O)NC(CC(=O)O)C(=O)NC1C(=O)N2CCCCC2C(=O)NC(C(C)C(=O)O)C(=O)NC(CC(=O)O)C(=O)NCC(=O)NC(CC(=O)O)C(=O)NCC(=O)NC(C(C)NC(=O)CN)C(=O)NC(C(C)C)C(=O)N2CCCC2C(=O)NC1C (centres unmarked)
comparison sign: =
experimental value: 0.5
//
compound: CCCCCCCCCCCCCCC(=O)NC(CC(=O)O)C(=O)NC1C(=O)N2CCCCC2C(=O)NC(C(C)C(=O)O)C(=O)NC(CC(=O)O)C(=O)NCC(=O)NC(CC(=O)O)C(=O)NCC(=O)NC(C(C)NC(=O)CCCNC(=O)CCCN)C(=O)NC(C(C)C)C(=O)N2CCCC2C(=O)NC1C (centres unmarked)
comparison sign: =
experimental value: 2
//
compound: CCCCCCCCCCCCCCC(=O)NC(CC(=O)O)C(=O)NC1C(=O)N2CCCCC2C(=O)NC(C(C)C(=O)O)C(=O)NC(CC(=O)O)C(=O)NCC(=O)NC(CC(=O)O)C(=O)NCC(=O)NC(C(C)NC(=O)CNC(C)=O)C(=O)NC(C(C)C)C(=O)N2CCCC2C(=O)NC1C (centres unmarked)
comparison sign: =
experimental value: 4
//
compound: CCCCCCCCCCCCCC(=O)N(C)CC(=O)NC(CC(=O)O)C(=O)NC1C(=O)N2CCCCC2C(=O)NC(C(C)C(=O)O)C(=O)NC(CC(=O)O)C(=O)NCC(=O)NC(CC(=O)O)C(=O)NCC(=O)NC(C(C)N)C(=O)NC(C(C)C)C(=O)N2CCCC2C(=O)NC1C (centres unmarked)
comparison sign: =
experimental value: 64
//
compound: CCCCCCCCCCCCCCC(=O)NC(CC(=O)O)C(=O)NC1C(=O)N2CCCCC2C(=O)NC(C(C)C(=O)O)C(=O)NC(CC(=O)O)C(=O)NCC(=O)NC(CC(=O)O)C(=O)NCC(=O)NC(C(C)NC(=O)CCCCNC(=O)CCN)C(=O)NC(C(C)C)C(=O)N2CCCC2C(=O)NC1C (centres unmarked)
comparison sign: =
experimental value: 4
//
compound: CCCCCCCCCC(=O)Nc1cccc(CC(=O)NC(CC(=O)O)C(=O)NC2C(=O)N3CCCCC3C(=O)NC(C(C)C(=O)O)C(=O)NC(CC(=O)O)C(=O)NCC(=O)NC(CC(=O)O)C(=O)NCC(=O)NC(C(C)N)C(=O)NC(C(C)C)C(=O)N3CCCC3C(=O)NC2C)c1 (stereo not drawn) [Compound 113, C10-(M-Apa)-Amphomycin] (Decanoyl-[Phac(3-amino)]D[ξAbu(βξ-NH2)][Pip][ξAsp(βξ-Me)]DGDG[ξAbu(3ξ-NH2)]VP; lactam 3-C; configuration not given here)
comparison sign: =
experimental value: 16
